All figures here come from paper PMC9304232.

# SYSTEM NAME: hNaV1.6 (Homo sapiens, UniProt Q9UQD0)
# Sequence (Q9UQD0 whole entry): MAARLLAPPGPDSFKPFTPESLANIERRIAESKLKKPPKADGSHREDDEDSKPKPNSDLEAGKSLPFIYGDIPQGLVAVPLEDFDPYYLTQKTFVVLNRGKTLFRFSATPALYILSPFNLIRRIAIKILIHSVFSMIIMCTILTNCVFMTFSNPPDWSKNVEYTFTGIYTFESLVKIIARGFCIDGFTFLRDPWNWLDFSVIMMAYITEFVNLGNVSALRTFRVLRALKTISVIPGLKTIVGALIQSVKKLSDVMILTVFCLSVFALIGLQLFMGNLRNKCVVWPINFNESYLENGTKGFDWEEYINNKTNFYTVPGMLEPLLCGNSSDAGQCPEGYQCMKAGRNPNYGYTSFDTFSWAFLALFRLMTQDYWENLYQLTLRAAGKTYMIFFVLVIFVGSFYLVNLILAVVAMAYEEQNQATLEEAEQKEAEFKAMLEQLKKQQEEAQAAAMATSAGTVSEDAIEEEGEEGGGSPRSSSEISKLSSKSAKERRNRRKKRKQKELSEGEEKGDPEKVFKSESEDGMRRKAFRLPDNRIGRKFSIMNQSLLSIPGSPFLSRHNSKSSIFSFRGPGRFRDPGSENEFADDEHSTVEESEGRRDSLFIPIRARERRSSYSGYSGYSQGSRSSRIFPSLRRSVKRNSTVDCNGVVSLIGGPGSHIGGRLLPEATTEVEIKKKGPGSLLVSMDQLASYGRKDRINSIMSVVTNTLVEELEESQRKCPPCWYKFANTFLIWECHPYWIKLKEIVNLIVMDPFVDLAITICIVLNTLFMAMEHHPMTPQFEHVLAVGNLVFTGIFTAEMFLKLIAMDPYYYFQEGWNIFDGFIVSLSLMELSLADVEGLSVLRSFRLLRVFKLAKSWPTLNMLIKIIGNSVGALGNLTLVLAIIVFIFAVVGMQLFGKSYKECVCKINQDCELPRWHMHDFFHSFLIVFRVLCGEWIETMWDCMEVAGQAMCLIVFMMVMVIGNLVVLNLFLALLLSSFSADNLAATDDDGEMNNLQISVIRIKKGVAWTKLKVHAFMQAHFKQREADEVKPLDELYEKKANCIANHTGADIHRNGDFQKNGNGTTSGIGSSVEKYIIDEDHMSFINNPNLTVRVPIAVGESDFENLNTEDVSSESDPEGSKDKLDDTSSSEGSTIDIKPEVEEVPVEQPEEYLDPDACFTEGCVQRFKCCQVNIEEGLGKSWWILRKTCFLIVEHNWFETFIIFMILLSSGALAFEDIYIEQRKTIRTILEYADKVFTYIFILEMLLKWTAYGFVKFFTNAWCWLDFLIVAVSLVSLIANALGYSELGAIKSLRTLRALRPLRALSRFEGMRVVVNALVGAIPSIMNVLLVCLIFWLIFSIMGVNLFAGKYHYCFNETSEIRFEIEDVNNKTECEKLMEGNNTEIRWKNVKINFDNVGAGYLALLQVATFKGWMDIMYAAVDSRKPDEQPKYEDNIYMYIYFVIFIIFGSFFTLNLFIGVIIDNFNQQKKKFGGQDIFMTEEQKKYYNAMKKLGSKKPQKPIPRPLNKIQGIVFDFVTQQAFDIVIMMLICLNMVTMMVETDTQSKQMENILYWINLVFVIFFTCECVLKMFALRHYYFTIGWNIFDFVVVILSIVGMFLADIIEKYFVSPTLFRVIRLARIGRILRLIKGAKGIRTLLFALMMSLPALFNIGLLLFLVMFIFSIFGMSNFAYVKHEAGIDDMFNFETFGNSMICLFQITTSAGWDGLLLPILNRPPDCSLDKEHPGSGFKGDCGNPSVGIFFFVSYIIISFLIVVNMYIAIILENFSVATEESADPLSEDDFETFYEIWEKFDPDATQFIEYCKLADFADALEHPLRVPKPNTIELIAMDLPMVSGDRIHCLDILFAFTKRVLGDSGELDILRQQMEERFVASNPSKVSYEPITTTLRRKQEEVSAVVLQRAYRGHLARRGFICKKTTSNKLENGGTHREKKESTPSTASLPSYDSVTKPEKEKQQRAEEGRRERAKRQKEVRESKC
# ASSAY PROTOCOL: Peak INa use‐dependent block
# Format: cell-based
# CONDITION CONTEXT: Hill slope, hNaV1.6
Items are presented alongside their recorded Peak INa UDB, 10 Hz, slope.

Please review the following examples before continuing.
{"COMPOUND": "Nc1nnc(-c2cccc(Cl)c2Cl)c(N)n1 [Lamotrigine, lamotrigine]", "SYSTEM NAME": "hNaV1.6 (Homo sapiens, UniProt Q9UQD0)", "READING": 1.0}
{"COMPOUND": "CCOC(F)(F)c1nnc2cnc(-c3cnc(OCC(F)(F)F)c(F)c3)cn12 [PRAX‐562]", "SYSTEM NAME": "hNaV1.6 (Homo sapiens, UniProt Q9UQD0)", "READING": 1.3}

Record request: Peak INa UDB, 10 Hz, slope value, item COC[C@@H](NC(C)=O)C(=O)NCc1ccccc1 [Lacosamide]
1.3
